- target-or-system: ATPase family AAA domain-containing protein 5 (Homo sapiens) (UniProt Q96QE3)
- Sequence (Q96QE3 whole entry, looked up, the tested form may be a part): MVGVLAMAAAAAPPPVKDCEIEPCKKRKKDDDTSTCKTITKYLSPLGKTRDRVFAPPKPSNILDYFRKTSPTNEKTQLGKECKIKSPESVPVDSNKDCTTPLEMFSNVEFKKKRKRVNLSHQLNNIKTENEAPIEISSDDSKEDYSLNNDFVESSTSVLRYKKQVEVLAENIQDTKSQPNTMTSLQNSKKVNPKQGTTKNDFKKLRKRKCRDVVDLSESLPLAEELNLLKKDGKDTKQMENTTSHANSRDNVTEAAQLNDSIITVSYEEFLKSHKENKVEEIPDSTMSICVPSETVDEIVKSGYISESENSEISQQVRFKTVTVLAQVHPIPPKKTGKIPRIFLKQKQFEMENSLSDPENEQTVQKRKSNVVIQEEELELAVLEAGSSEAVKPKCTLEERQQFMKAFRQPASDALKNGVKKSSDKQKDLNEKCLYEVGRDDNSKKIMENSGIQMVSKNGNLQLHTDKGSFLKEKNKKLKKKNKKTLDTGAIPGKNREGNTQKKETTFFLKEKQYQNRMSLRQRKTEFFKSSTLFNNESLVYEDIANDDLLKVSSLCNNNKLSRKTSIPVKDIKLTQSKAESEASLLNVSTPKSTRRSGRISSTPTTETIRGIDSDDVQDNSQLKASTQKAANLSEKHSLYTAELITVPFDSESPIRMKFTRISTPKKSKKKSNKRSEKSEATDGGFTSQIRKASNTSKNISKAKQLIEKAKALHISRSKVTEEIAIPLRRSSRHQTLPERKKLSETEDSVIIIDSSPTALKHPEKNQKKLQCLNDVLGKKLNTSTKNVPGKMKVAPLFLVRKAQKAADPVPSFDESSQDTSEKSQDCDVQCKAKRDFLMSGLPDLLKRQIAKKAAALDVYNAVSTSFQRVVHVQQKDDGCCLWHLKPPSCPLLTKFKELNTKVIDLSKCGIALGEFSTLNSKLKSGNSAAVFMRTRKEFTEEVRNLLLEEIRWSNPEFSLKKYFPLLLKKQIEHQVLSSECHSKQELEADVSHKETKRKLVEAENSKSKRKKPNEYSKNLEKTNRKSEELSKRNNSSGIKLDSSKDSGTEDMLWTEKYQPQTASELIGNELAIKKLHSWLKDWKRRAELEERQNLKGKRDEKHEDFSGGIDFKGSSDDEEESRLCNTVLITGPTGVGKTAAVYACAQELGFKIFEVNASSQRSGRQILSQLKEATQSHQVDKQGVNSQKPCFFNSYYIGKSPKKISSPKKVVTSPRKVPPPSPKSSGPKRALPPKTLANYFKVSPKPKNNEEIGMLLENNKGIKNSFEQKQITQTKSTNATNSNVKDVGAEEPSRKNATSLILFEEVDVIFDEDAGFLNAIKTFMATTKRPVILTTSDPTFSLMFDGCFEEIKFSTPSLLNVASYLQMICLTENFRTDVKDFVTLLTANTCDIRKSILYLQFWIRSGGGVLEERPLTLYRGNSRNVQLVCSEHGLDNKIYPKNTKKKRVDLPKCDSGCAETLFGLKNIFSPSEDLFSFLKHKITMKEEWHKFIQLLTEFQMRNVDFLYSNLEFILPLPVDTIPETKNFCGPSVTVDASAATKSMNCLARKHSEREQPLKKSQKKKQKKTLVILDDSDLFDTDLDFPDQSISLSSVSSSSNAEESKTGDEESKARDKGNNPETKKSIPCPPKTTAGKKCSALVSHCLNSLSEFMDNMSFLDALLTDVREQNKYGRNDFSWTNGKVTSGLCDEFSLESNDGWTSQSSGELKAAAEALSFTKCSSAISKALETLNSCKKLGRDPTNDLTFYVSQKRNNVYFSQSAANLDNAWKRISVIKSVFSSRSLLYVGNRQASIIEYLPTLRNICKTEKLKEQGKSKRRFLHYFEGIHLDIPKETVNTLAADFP
- test-protocol: HTS assay for small molecules that inhibit ELG1-dependent DNA repair in human embryonic kidney (HEK293T) cells expressing luciferase-tagged ELG1: Hit Confirmation (AID 624248); note: potency is the fitted concentration of half-maximal effect; nearly all actives have a fitted effect of over 55% in size
- measurement-conditions: HEK293T ELG1-luciferase levels, luminescence, cells co-treated with 5-fluorouridine; series mostly up to 46.1 µM
This is one part of the list. Results filed as inconclusive are left out. Activity calls are given as the source filed them. Calls come from the whole dose curve; as a rule, active = well fitted inhibition curve with a large enough effect; inconclusive = small, poorly fitted or top-dose-only effect; inactive = no such curve, though single readings can be large or run the other way.
quantity-measured: Potency

Here's what some known entries look like.
INSERT INTO results (compound, target_or_system, value_measured) VALUES
  ('CN(CC1CCCO1)S(=O)(=O)c1ccc(C(=O)Nc2ccc(F)cc2)cc1 (stereo not given)', 'ATPase family AAA domain-containing protein 5 (Homo sapiens) (UniProt Q96QE3)', '9.96 µM (active)'),
  ('COc1ccccc1C(=O)Nc1ccc(C)c(S(=O)(=O)N2CCCCC2)c1', 'ATPase family AAA domain-containing protein 5 (Homo sapiens) (UniProt Q96QE3)', '14.1 µM (active)');

Q: Using the record for Nc1nnc(SCC(=O)Nc2ccc3nc(SCC(=O)Nc4ccccc4)sc3c2)s1 , report its Potency.
A: 0.888 µM (active)

Q: Using the record for CN(C)c1ccnc2sc3c(=O)n(Cc4ccccc4)cnc3c12 , report its Potency.
A: 4.45 µM (active)

Q: Using the record for CCOC(=O)c1cccc(NC(=O)C2CCN(c3ncnc4c3nc3n4CCCCC3)CC2)c1 , report its Potency.
A: 3.97 µM (active)

---

- Tested on: PC26
- test-protocol: qHTS profiling for inhibitors of Plasmodium falciparum proliferation (AID 504749); note: nearly all actives have a fitted effect of over 60% in size
- measurement-conditions: P. falciparum in erythrocytes, SYBR Green DNA, 72 h; series mostly up to 28.7 µM
Results filed as inconclusive are left out. The source made the active and inactive calls. Calls follow the shape of the dose curve; as a rule, active = well fitted inhibition curve with a large enough effect; inconclusive = small, poorly fitted or top-dose-only effect; inactive = flat fitted curve, though single readings scatter. Square brackets hold non-standard residues; d marks the D form. Peptide text beside a SMILES is read from it. Orn = NCCC[CH](N)C(=O)O
Answer with one of the outcomes given here: active, inactive

Consider the worked cases shown below.
INSERT INTO results (compound, qualitative_label) VALUES
  ('NC(=O)CCC1NC(=O)C(Cc2ccccc2)NC(=O)C(Cc2ccc(O)cc2)NC(=O)CCSSCC(C(=O)N2CCCC2C(=O)NC(CCCN=C(N)N)C(=O)NCC(N)=O)NC(=O)C(CC(N)=O)NC1=O (stereo not given)', 'inactive'),
  ('O=C(O)c1ccccc1-c1c2cc(Br)c(=O)c(Br)c-2oc2c(Br)c(O)c(Br)cc12', 'inactive'),
  ('CC(C)CC1NC(=O)C(CCCN)NC(=O)C(C(C)C)NC(=O)C2CCCN2C(=O)C(Cc2ccccc2)NC(=O)C(CC(C)C)NC(=O)C(CCCN)NC(=O)C(C(C)C)NC(=O)C2CCCN2C(=O)C(Cc2ccccc2)NC1=O (stereo not given) (cyclo(FPV[Orn]LFPV[Orn]L); configuration not given here)', 'active'),
  ('C=CC1=C(C(=O)O)N2C(=O)[C@@H](NC(=O)C(N=O)c3csc(N)n3)[C@H]2SC1 (stereo not given in full)', 'inactive');

Then there is this compound:
Q: For this compound, state the assay outcome: CC1(C)C(/C=C/C=C/C=C/C=C2\N(CCCCS(=O)(=O)O)c3ccc4ccccc4c3C2(C)C)=[N+](CCCCS(=O)(=O)[O-])c2ccc3ccccc3c21
A: inactive

---

- test-protocol: qHTS for Inhibitors of the vitamin D receptor (VDR): Hit Validation using a Texas Red Assay (AID 602201); note: potency is the fitted concentration of half-maximal effect
- measurement-conditions: VDR coregulator binding, Texas Red fluorescence polarization, agonist-bound VDR ligand-binding domain; series mostly up to 57.1 µM
Results filed as inconclusive are left out. Activity calls are given as the source filed them. The call rests on the fitted dose curve; in most records, active means well fitted curve in the direction sought with a large enough effect; inconclusive means small, poorly fitted or top-dose-only effect, or another doubt; inactive means no such curve, though single readings can be large or run the other way.
quantity-measured: Potency

Here's what some known entries look like.
INSERT INTO results (query_smiles, value_measured) VALUES
  ('CN1C(=O)C(Cl)(Cl)C(=O)c2ccccc21', 'inactive'),
  ('O=C1C(C2=C(O)c3ccccc3C2=O)=Nc2ccccc21', 'inactive'),
  ('CCN(CC)c1ccc(NC(=O)c2ccccc2)cc1S(=O)(=O)Nc1ccccc1OC', '10 µM (active)'),
  ('CS(=O)(=O)c1ccc(C(=O)OCc2nnc(-c3ccc(Cl)cc3)o2)cc1[N+](=O)[O-]', '8.91 µM (active)'),
  ('O=C1Nc2ccccc2/C1=C/C(=O)c1cccs1', '28.2 µM (active)'),
  ('O=C(CCS(=O)(=O)c1nc(-c2cccs2)cc(C(F)(F)F)n1)Nc1cc(Br)ccc1O', '5.62 µM (active)'),
  ('COc1cc(/C=C/C(=O)c2ccc(F)cc2)cc(OC)c1OC', 'inactive'),
  ('Cc1ccc(S(=O)(=O)CCC(=O)c2cccc([N+](=O)[O-])c2)cc1', '3.55 µM (active)');

Q: Using the record for Nc1cc(S(=O)(=O)Nc2ccccc2Cl)ccc1N1CCCCC1 , report its Potency.
A: 5.62 µM (active)

Q: Using the record for CSc1nnc(NC(=O)c2nc(S(=O)(=O)Cc3ccc(C)cc3)ncc2Cl)s1 , report its Potency.
A: inactive

Q: Using the record for O=C1ON=C(c2ccccc2)/C1=C/c1ccc(O)cc1 , report its Potency.
A: inactive

---

- target-or-system: Cytochrome P450 3A4 (Homo sapiens)
- test-protocol: qHTS Assay for Inhibitors and Substrates of Cytochrome P450 3A4 (AID 884); note: nearly all actives have a fitted effect of over 50% in size
- measurement-conditions: recombinant CYP3A4, Luciferin-PPXE luminescence; series mostly up to 57.1 µM
Inconclusive results are not listed. The source made the active and inactive calls. Calls come from the whole dose curve; as a rule, active = well fitted inhibition curve with a large enough effect; inconclusive = small, poorly fitted or top-dose-only effect; inactive = no such curve, though single readings can be large or run the other way.
Answer with one of the outcomes given here: 1.0 for active, 0.0 for inactive

INSERT INTO results (compound, qualitative_label) VALUES
  ('COc1cc2ccc(=O)oc2c(OC)c1OC', 0.0),
  ('C#CCCCO/N=C1/C[C@@H](O)[C@@H](O)[C@@H]2[C@@H]3C(=O)N([C@@H](C)c4ccccc4)C(=O)[C@H]3CC[C@@H]12', 1.0),
  ('NC(=O)c1cc[n+](CC2=C(C(=O)O)N3C(=O)C(NC(=O)C(c4ccccc4)S(=O)(=O)[O-])C3SC2)cc1 (configuration not stated)', 0.0),
  ('CCC1=C(OC(=O)N(CC)CC)N2C(=O)OC(=NCCOC)[C@]2(Cc2ccccc2)[C@H]2C1=CC[C@H]1C(=O)N(C)C(=O)[C@H]12', 1.0),
  ('C[C@]12CCC3c4ccc(O)cc4CCC3C1CCC2OC(=O)CCC1CCCC1 (some centres not stated)', 0.0);

Q: For this compound, state the assay outcome: CC(=O)N1CC=CC1(CC(C)C)C(=O)NCCc1c[nH]c2ccccc12 (configuration not stated)
A: 1.0

Q: For this compound, state the assay outcome: COC(=O)[C@@H]1C[C@@]2(O)[C@@H](O)[C@@H](O)[C@@H](O)C[C@H]2N1Cc1ccc(Cl)cc1
A: 0.0

Q: For this compound, state the assay outcome: COCCN=C1OC(=O)N2C(=O)C3=C4C(C[C@H]5C(=O)N(CC(=O)OC)C(=O)[C@H]5[C@H]4[C@@]12Cc1ccccc1)[C@H]1C(=O)N(CC(=O)OC)C(=O)[C@H]1[C@H]3C (some centres not stated)
A: 1.0

Q: For this compound, state the assay outcome: COc1cccc([C@@H]2Oc3ccc(OC)cc3/C(=N/OC[C@@H](O)COCc3ccco3)[C@@H]2O)c1
A: 1.0

Q: For this compound, state the assay outcome: CCC[C@@H]1C[C@@]1(CCC)[C@@H](NP(=O)(c1ccccc1)c1ccccc1)c1ccc(C(=O)OC)cc1
A: 1.0

Q: For this compound, state the assay outcome: CC(=O)OCC1OC(C#CCCCc2ccccc2)C=CC1OC(C)=O (configuration not stated)
A: 1.0

Q: For this compound, state the assay outcome: Cn1c(=O)c(C(=O)COC(=O)c2cc(C(F)(F)F)nc3ccccc23)c(N)n(Cc2ccccc2)c1=O
A: 0.0

Q: For this compound, state the assay outcome: COC(=O)[C@@H]1C[C@@H]2CC[C@@H](O)C[C@@H]2N1Cc1ccc(OC)cc1
A: 1.0

Q: For this compound, state the assay outcome: O=c1oc2ccccc2c2oc3cc(O)c(O)cc3c12
A: 1.0

Q: For this compound, state the assay outcome: COc1ccc(O[C@H]2C=C[C@@H](c3ccccc3)O[C@H]2COC(=O)CC/C(C)=N/O[C@@H]2O[C@H](COC(C)=O)[C@H](OC(C)=O)[C@H](OC(C)=O)[C@H]2OC(C)=O)cc1
A: 1.0

Q: For this compound, state the assay outcome: C#CCCCO/N=C1/C[C@@H](O)[C@@H](O)[C@@H]2[C@@H]3C(=O)N(Cc4ccccc4)C(=O)[C@H]3CC[C@H]12
A: 1.0

Q: For this compound, state the assay outcome: FC(F)(F)c1ccc(C2[C@H]3CN(CC4CCCCC4)[C@H](c4ccccc4)C34CC2(c2ccccc2)C4)cc1 (some centres not stated)
A: 0.0
